target: Receptor tyrosine-protein kinase erbB-2 (Homo sapiens); experiment: Inhibition of recombinant human N-terminal GST-His6-fused erbB2 expressed in Sf9 insect cells using poly (Glu, Tyr) 4:1 as substrate after 60 mins in presence of [gamma-33P]-ATP by microplate scintillation counting method
Sequence (P04626 whole entry, the tested form may be a part): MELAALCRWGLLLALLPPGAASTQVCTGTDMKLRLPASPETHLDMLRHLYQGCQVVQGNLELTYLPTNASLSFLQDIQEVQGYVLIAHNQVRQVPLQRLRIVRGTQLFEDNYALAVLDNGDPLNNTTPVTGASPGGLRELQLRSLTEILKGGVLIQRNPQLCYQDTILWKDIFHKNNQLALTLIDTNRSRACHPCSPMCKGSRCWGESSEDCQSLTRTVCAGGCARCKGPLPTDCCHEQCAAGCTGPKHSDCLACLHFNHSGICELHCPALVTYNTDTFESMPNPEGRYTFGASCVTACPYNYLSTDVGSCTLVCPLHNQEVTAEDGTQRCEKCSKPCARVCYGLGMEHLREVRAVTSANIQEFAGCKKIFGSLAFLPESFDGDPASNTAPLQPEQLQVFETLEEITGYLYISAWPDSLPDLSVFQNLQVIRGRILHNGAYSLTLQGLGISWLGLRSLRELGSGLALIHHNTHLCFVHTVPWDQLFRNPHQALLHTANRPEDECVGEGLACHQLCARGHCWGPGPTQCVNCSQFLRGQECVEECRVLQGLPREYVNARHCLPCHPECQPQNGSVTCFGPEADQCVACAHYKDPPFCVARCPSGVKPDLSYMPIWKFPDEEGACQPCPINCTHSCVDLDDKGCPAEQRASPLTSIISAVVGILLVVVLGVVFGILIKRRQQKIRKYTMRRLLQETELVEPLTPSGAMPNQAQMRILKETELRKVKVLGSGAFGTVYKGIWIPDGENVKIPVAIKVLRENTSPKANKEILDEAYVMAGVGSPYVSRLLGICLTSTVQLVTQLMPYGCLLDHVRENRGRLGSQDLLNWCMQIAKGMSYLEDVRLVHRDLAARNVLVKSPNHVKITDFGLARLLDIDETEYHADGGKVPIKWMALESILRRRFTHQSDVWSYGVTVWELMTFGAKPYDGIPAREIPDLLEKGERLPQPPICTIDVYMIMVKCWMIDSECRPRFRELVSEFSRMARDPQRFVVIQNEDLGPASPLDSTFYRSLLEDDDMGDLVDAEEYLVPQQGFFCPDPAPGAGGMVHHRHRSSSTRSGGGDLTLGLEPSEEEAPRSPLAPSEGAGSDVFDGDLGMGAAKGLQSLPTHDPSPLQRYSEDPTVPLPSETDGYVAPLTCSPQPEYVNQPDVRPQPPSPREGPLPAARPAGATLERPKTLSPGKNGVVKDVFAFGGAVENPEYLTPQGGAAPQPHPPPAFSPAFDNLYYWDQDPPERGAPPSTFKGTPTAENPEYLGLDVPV
valueType: pIC50
pIC50 here is simply -log10 of the concentration when that concentration is written in mol/L.

Example entries begin here.
[
  {
    "sampleSmiles": "COCCc1ccc(OCc2ccc(-c3cc(C(F)(F)F)cc(S(=O)(=O)NCCc4cccc(F)c4)c3)cc2)cc1",
    "testedOn": "Receptor tyrosine-protein kinase erbB-2 (Homo sapiens)",
    "pIC50": 4.60
  },
  {
    "sampleSmiles": "O=S(=O)(NCCc1cccc(F)c1)c1cc(-c2ccc(COc3cccc(C(F)(F)F)c3)cc2)cc(C(F)(F)F)c1",
    "testedOn": "Receptor tyrosine-protein kinase erbB-2 (Homo sapiens)",
    "pIC50": 4.74
  },
  {
    "sampleSmiles": "O=S(=O)(NCCc1cccc(F)c1)c1cc(-c2ccc(-c3cccs3)s2)cc(C(F)(F)F)c1",
    "testedOn": "Receptor tyrosine-protein kinase erbB-2 (Homo sapiens)",
    "pIC50": 4.50
  },
  {
    "sampleSmiles": "O=S(=O)(NCCc1cccc(F)c1)c1cc(-c2ccccc2COc2cccc(C(F)(F)F)c2)cc(C(F)(F)F)c1",
    "testedOn": "Receptor tyrosine-protein kinase erbB-2 (Homo sapiens)",
    "pIC50": 5.01
  }
]

Now take the following compound into account.
// query pIC50 value for entry O=S(=O)(NCCc1cccc(F)c1)c1cc(-c2cccc3c2Sc2ccccc2S3)cc(C(F)(F)F)c1 4.98

* * *

inhibition values, listed per item
biological target: Ephrin type-A receptor 3 (Homo sapiens) (UniProt P29320); test: Inhibition of recombinant human N-terminal GST-His6-fused ephA3 expressed in Sf9 insect cells at 10 uM using poly (Glu, Tyr) 4:1 as substrate after 60 mins in presence of [gamma-33P]-ATP by microplate scintillation counting method relative to control
API: value field is a number in %; no unit string.

[
  {
    "sampleSmiles": "O=S(=O)(NCCc1cccc(F)c1)c1cc(-c2ccc(-c3cccs3)s2)cc(C(F)(F)F)c1",
    "inhibition, %": 22
  }
]

# value lookup — system Ephrin type-A receptor 3 (Homo sapiens) (UniProt P29320), readout inhibition, item O=S(=O)(NCCc1cccc(F)c1)c1cc(-c2cccc3c2Sc2ccccc2S3)cc(C(F)(F)F)c1 32.8

Missing value: inhibition, Ephrin type-A receptor 3 (Homo sapiens) (UniProt P29320), entry O=S(=O)(NCCc1cccc(F)c1)c1cc(-c2cc3ccccc3[nH]2)cc(C(F)(F)F)c1 . Fill in? 22.7

* * *

tested on: MCF7; assay: Cytotoxicity against human MCF7 cells after 24 hrs by MTT assay; format: functional, cell-based; details: MCF7, 24 h
Measured IC50 accompanies every entry in the list below.
Write the answer as a number in µM, unit excluded.

Known IC50 results, listed for orientation:
[
  {
    "sampleSmiles": "O=S(=O)(NCCc1cccc(F)c1)c1cc(-c2ccccc2COc2cccc(C(F)(F)F)c2)cc(C(F)(F)F)c1",
    "resultValue": 44.2
  },
  {
    "sampleSmiles": "O=S(=O)(NCCc1cccc(F)c1)c1cc(-c2ccc(-c3cccs3)s2)cc(C(F)(F)F)c1",
    "resultValue": 9.09
  },
  {
    "sampleSmiles": "COCCc1ccc(OCc2ccc(-c3cc(C(F)(F)F)cc(S(=O)(=O)NCCc4cccc(F)c4)c3)cc2)cc1",
    "resultValue": 45.1
  },
  {
    "sampleSmiles": "O=S(=O)(NCCc1cccc(F)c1)c1cc(-c2ccc(COc3cccc(C(F)(F)F)c3)cc2)cc(C(F)(F)F)c1",
    "resultValue": 28.2
  }
]

Moving on to the next molecule.
What measured IC50 goes with O=S(=O)(NCCc1cccc(F)c1)c1cc(-c2cccc3c2Sc2ccccc2S3)cc(C(F)(F)F)c1 ? 22.8

* * *

target: Receptor tyrosine-protein kinase erbB-4 (Homo sapiens, UniProt Q15303); assay: Inhibition of recombinant human N-terminal GST-His6-fused erbB4 expressed in Sf9 insect cells using poly (Glu, Tyr) 4:1 as substrate after 60 mins in presence of [gamma-33P]-ATP by microplate scintillation counting method
Sequence (Q15303 whole entry, the tested form may be a part): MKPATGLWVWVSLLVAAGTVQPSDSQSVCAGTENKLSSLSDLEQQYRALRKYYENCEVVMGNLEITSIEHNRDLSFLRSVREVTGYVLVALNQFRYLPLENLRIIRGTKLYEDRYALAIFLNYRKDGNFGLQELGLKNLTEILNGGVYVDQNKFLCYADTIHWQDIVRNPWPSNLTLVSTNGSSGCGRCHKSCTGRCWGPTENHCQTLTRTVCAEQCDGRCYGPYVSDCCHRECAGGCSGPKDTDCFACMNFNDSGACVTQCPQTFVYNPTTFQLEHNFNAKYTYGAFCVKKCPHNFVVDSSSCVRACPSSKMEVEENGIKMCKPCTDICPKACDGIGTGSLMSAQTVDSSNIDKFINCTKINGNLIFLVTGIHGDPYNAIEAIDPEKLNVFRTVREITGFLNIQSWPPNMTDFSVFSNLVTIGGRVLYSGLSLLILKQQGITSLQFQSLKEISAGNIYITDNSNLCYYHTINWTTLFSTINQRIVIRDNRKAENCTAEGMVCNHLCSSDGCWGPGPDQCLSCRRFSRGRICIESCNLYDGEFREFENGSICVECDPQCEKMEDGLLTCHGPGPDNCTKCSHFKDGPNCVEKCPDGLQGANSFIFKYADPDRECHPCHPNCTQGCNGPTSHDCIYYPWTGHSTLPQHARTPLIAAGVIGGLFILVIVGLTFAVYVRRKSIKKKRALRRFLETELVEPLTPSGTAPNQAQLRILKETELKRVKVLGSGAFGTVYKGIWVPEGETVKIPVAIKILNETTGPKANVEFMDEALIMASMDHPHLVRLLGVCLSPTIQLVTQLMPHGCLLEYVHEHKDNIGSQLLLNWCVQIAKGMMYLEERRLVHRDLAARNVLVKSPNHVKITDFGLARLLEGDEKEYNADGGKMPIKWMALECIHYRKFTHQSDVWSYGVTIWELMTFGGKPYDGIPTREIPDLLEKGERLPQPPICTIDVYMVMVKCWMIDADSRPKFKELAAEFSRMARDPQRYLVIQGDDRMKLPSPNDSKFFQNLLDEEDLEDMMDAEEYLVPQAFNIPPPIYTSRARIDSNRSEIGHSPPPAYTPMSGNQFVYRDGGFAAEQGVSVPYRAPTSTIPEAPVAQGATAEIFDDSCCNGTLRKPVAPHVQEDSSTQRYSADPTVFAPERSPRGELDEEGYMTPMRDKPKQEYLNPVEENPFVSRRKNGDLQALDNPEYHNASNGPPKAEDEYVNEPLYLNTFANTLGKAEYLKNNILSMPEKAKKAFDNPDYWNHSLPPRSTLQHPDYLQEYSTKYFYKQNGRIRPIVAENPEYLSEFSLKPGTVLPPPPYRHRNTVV
valueType: pIC50
Remember the convention: pIC50 equals -log10 of concentration in molar.

Below, each entry is followed by its recorded pIC50 result.
[
  {
    "sampleSmiles": "O=S(=O)(NCCc1cccc(F)c1)c1cc(-c2ccc(COc3cccc(C(F)(F)F)c3)cc2)cc(C(F)(F)F)c1",
    "pIC50": 5.30
  },
  {
    "sampleSmiles": "O=S(=O)(NCCc1cccc(F)c1)c1cc(-c2ccc(-c3cccs3)s2)cc(C(F)(F)F)c1",
    "pIC50": 5.09
  },
  {
    "sampleSmiles": "O=S(=O)(NCCc1cccc(F)c1)c1cc(-c2ccccc2COc2cccc(C(F)(F)F)c2)cc(C(F)(F)F)c1",
    "pIC50": 5.36
  },
  {
    "sampleSmiles": "O=S(=O)(NCCc1cccc(F)c1)c1cc(-c2cccc3c2Sc2ccccc2S3)cc(C(F)(F)F)c1",
    "pIC50": 5.19
  }
]

Okay, now this compound:
What value of measured pIC50 is listed for COCCc1ccc(OCc2ccc(-c3cc(C(F)(F)F)cc(S(=O)(=O)NCCc4cccc(F)c4)c3)cc2)cc1 ? 5.19

* * *

Biological target: Ephrin type-A receptor 3 (Homo sapiens)
Sequence (whole entry): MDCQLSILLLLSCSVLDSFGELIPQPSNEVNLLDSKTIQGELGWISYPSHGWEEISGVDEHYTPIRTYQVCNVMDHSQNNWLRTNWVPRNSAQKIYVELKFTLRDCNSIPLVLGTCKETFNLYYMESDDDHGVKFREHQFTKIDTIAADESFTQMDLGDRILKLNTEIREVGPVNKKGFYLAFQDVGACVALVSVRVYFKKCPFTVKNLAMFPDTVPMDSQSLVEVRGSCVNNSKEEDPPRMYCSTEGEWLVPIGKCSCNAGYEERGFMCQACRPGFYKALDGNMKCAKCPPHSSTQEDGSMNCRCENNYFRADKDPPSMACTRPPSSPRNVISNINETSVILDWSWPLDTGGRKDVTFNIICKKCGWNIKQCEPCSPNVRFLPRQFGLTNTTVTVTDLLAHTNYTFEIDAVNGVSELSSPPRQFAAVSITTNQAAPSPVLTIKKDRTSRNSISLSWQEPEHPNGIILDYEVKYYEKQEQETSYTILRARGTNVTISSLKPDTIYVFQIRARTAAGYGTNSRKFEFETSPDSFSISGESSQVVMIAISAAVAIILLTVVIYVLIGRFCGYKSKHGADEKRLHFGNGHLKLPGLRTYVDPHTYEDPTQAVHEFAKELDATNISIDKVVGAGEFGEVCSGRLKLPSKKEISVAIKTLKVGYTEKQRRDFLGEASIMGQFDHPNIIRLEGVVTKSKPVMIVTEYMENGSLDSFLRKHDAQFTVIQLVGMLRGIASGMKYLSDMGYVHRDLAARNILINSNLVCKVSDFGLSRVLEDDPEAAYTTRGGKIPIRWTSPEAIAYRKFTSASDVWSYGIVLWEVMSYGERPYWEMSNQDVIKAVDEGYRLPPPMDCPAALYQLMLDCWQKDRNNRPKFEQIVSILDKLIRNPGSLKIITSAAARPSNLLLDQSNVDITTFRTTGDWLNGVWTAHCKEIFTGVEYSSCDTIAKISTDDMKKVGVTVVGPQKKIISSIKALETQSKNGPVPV
Experiment: Inhibition of recombinant human N-terminal GST-His6-fused ephA3 expressed in Sf9 insect cells at 10 uM using poly (Glu, Tyr) 4:1 as substrate after 60 mins in presence of [gamma-33P]-ATP by microplate scintillation counting method relative to control
I would appreciate it if you labelled entries met when inhibition is 30% or higher, otherwise not met.

Use the examples below as a reference point.
[
  {
    "sampleSmiles": "COCCc1ccc(OCc2ccc(-c3cc(C(F)(F)F)cc(S(=O)(=O)NCCc4cccc(F)c4)c3)cc2)cc1",
    "qualitativeLabel": "met"
  },
  {
    "sampleSmiles": "O=S(=O)(NCCc1cccc(F)c1)c1cc(-c2ccc(COc3cccc(C(F)(F)F)c3)cc2)cc(C(F)(F)F)c1",
    "qualitativeLabel": "not met"
  },
  {
    "sampleSmiles": "O=S(=O)(NCCc1cccc(F)c1)c1cc(-c2cccc3c2oc2ccccc23)cc(C(F)(F)F)c1",
    "qualitativeLabel": "not met"
  },
  {
    "sampleSmiles": "O=S(=O)(NCCc1cccc(F)c1)c1cc(-c2ccnc(F)c2)cc(C(F)(F)F)c1",
    "qualitativeLabel": "not met"
  }
]

Form field: inhibition at least 30%? Entry: O=S(=O)(NCCc1cccc(F)c1)c1cc(-c2cccnc2)cc(C(F)(F)F)c1 not met

Is the recorded value of inhibition equal to or greater than 30% for this compound? O=Cc1ccc(-c2cc(C(F)(F)F)cc(S(=O)(=O)NCCc3cccc(F)c3)c2)s1 not met
